# method.notes: Stability in rat liver microsome at 10 uM after 30 min
# Format: ADME
# protocol.conditions: liver microsomes, read-out: Stability
measured.quantity: remaining at 0.5 h, 10 µM (%)
Give the value, in units of %, as a plain number.

Recorded result, CCCc1cc(N[C@@H](CC(C)C)C(=O)NCCCOCC)nc(-n2cnc(-c3ccc(OC(F)(F)F)cc3)c2)n1 , remaining at 0.5 h, 10 µM: 74

Form: compound = CCOCCCNC(=O)[C@H](CC(C)C)Nc1cc(CC)nc(-n2cnc(-c3ccc(OC(F)(F)F)cc3)c2)n1 ; remaining at 0.5 h, 10 µM = 77

Quick note, remaining at 0.5 h, 10 µM for CCCCCCCCc1cc(N[C@@H](CC(C)C)C(=O)NCCCOCC)nc(-n2ccnc2)n1 landed at 36

Reported remaining at 0.5 h, 10 µM of CCCCc1cc(N[C@@H](CC(C)C)C(=O)NCCCOCC)nc(-n2cnc(-c3ccc(Cl)cc3)c2)n1 : 54

Reported remaining at 0.5 h, 10 µM for CCCCc1cc(N[C@@H](CC(C)C)C(=O)NCCCOCC)nc(-n2cnc(-c3ccc([N+](=O)[O-])cc3)c2)n1 was 48

Value of remaining at 0.5 h, 10 µM reported for the compound CCCCc1cc(N[C@@H](CC(C)C)C(=O)NCCCOCC)nc(-n2cnc(-c3ccc(C)cc3)c2)n1 is 35

CCCCc1cc(N[C@@H](CC(C)C)C(=O)NCCCOCC)nc(-n2cnc(-c3ccc(OC(F)(F)F)cc3)c2)n1 has a reported remaining at 0.5 h, 10 µM of 66

Field remaining at 0.5 h, 10 µM (entry CCOCCCNC(=O)[C@H](CC(C)C)Nc1ccnc(-n2cnc(-c3ccc(OC(F)(F)F)cc3)c2)n1 ) reads 5

Looking up CCCCc1cc(N[C@@H](CC(C)C)C(=O)NCCCOCC)nc(-n2cnc(-c3ccccc3)c2)n1 , I see its remaining at 0.5 h, 10 µM listed as 2

The value of remaining at 0.5 h, 10 µM measured for the compound CCCCc1cc(N[C@@H](CC(C)C)C(=O)NCCCOCC)nc(-n2cnc(C(C)(C)C)c2)n1 turned out to be 13

Value of measured remaining at 0.5 h, 10 µM for the entry CCCCc1cc(N[C@@H](CC(C)C)C(=O)NCCCOCC)nc(-n2cnc(-c3ccc(O)cc3)c2)n1 : 65

Lab note: measured remaining at 0.5 h, 10 µM of CCCCc1cc(N[C@@H](CC(C)C)C(=O)NCCCOCC)nc(-c2cccnc2)n1 was 36

Reported remaining at 0.5 h, 10 µM for CCCc1cc(N[C@@H](CC(C)C)C(=O)NCCCOCC)nc(-n2cnc(-c3ccccc3OC(F)(F)F)c2)n1 was 13

remaining at 0.5 h, 10 µM reported for this compound CCCCc1cc(N[C@@H](CC(C)C)C(=O)NCCCOCC)nc(-n2ccnc2C)n1 : 27

So for CCCCc1cc(N[C@@H](CC(C)C)C(=O)NCCCOCC)nc(-n2cnc(-c3ccc(OC)cc3)c2)n1 , the logged remaining at 0.5 h, 10 µM turned out to be 30

The recorded remaining at 0.5 h, 10 µM for entry CCCCc1cc(N[C@@H](CC(C)C)C(=O)NCCCOCC)nc(-n2cncn2)n1 equals 30

The recorded remaining at 0.5 h, 10 µM for CCOCCCNC(=O)[C@H](CC(C)C)Nc1cc(C)nc(-n2cnc(-c3ccc(OC(F)(F)F)cc3)c2)n1 is 67

Reported remaining at 0.5 h, 10 µM of CCCCCCc1cc(N[C@@H](CC(C)C)C(=O)NCCCOCC)nc(-n2ccnc2)n1 : 50
